Population Apoptotic (%) reference
Tested on: Fibroblast
Assay: Multiplex assay against human fibroblast
Type: toxicity, cell-based
Conditions: 12 h, 10 µM, compound concentration 10 uM, replicate 2
Please answer using the number first and the unit second.

1) CN1C[C@H](C(=O)N[C@]2(C)O[C@@]3(O)[C@@H]4CCCN4C(=O)[C@H](Cc4ccccc4)N3C2=O)C[C@@H]2c3cccc4[nH]cc(c34)C[C@H]21.CS(=O)(=O)O [DIHYDROERGOTAMINE MESYLATE] | 31%

Field request: Population Apoptotic (%) | item: COCCn1c(C)c(C)s/c1=N\C(=O)C1C(C)(C)C1(C)C
37%

Look at this compound and give its reported Population Apoptotic (%). Cc1cc(-c2ccc3c(c2)CC[C@H]3N2CC3(CCN(C(=O)Cc4cn5cc(C)sc5n4)CC3)C2)ncn1
45%

I'd like to know its Population Apoptotic (%). The compound in question is CN1CCC(C(=O)c2cccc(NC(=O)c3c(F)cc(F)cc3F)n2)CC1
36%

Requested read-out: Population Apoptotic (%). Entry: COc1cc(OC2CCN(C(C)=O)CC2)ccc1C(=O)N1CCC(N2C(=O)OCc3ccccc32)CC1
37%

Need Population Apoptotic (%) of O=C(O)CCC/C=C\CC1C(O)CC(O)C1/C=C/C(O)COc1cccc(Cl)c1 (centres undefined) , thanks.
23%

Request the reported Population Apoptotic (%) associated with Cc1sc2c(c1C)C(c1ccc(Cl)cc1)=N[C@H](CC(=O)OC(C)(C)C)c1nnc(C)n1-2
51%
